B1: PRIM1 (parent)
chain: CCSSADICPKCWTLMTMAIRIIDR

Variants of: B1
assay-notes: protein stability index of a GFP-peptide fusion (GPS, HEK-293T) (PSI 1-6); higher = more stable;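 note: lentivirally expressed fusions sorted by FACS into six bins by GFP to DsRed ratio, PSI derived from sequencing read proportions per bin multiplied by bin number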
recorded-conditions: c terminus: a fixed tail appended
// reported protein stability index per item
// no unit, no text: just the number

Consider the reported protein stability index for these variants:
- variant-designation: "S3M"
  protein stability index: 2.7
- variant-designation: "S4M"
  protein stability index: 2.97
- variant-designation: "C1N"
  protein stability index: 1.49
- variant-designation: "I7K"
  protein stability index: 2.65

**Q:** So what does the record say about protein stability index for M15G ?
**A:** 1.69

**Q:** Next entry: R20S
**A:** 2.01

**Q:** Next entry: S4T
**A:** 1.63

**Q:** Next entry: C1I
**A:** 1.53

**Q:** Next entry: C1G
**A:** 1.88

**Q:** Next entry: W12Q
**A:** 2.75

**Q:** Next entry: D23R
**A:** 1.68

**Q:** Next entry: W12I
**A:** 1.83

**Q:** Next entry: I19E
**A:** 2.48
